Measured MIC values are reported for all entries that follow.
# Test system: Staphylococcus aureus
# Experiment Description: Antibacterial activity against erythromycin-susceptible Staphylococcus aureus ATCC 25923 by standard dilution assay
# Assay type: functional

# Structure, System, MIC / µg/mL
data = [
    ("CC[C@H]1OC(=O)[C@H](C)[C@@H](O)[C@H](C)[C@@H](O[C@@H]2O[C@H](C)C[C@H](N(C)C)[C@H]2OC(C)=O)[C@](C)(O)C[C@@H](C)CN(C)[C@H](C)[C@@H](O)[C@]1(C)O", "Staphylococcus aureus", 128),
    ("CC[C@H]1OC(=O)[C@H](C)[C@@H](O[C@H]2C[C@@](C)(OC)[C@@H](O)[C@H](C)O2)[C@H](C)[C@@H](O[C@@H]2O[C@H](C)C[C@H](N(C)C)[C@H]2O)[C@](C)(O)C[C@@H](C)CN(C)[C@H](C)[C@@H](O)[C@]1(C)O", "Staphylococcus aureus", 0.25),
]
